Target of assay: AChE from electric eel (Electrophorus electricus)
Sequence (O42275 24-633): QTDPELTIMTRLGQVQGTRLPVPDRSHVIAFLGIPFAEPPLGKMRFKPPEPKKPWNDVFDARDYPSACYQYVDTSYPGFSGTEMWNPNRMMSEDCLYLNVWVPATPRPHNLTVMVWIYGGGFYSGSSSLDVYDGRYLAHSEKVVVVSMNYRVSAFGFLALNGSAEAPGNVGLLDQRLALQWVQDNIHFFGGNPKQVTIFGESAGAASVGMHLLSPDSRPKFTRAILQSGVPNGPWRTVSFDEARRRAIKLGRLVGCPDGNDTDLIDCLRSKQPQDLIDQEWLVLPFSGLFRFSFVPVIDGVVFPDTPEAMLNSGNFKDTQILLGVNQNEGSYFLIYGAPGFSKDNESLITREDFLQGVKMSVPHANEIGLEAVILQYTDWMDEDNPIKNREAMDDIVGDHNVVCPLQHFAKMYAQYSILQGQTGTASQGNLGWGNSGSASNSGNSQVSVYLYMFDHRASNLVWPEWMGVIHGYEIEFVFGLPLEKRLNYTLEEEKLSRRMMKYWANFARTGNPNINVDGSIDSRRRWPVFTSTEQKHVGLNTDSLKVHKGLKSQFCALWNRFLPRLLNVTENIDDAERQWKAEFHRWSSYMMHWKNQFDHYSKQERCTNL
pIC50: −log10 of the molar value.
Classify as follows. Reported pIC50 greater than or equal to 4: TRUE. Reported pIC50 below: FALSE.

Incoming: Assess whether reported pIC50 for CC(C(=O)c1ccc(Cl)cc1)N(C)C(=O)Oc1ccccc1 (stereo not drawn) [Compound 19] sits at 4 or higher.
Outgoing: TRUE

Incoming: Assess whether reported pIC50 for CCCC(C(=O)c1ccccc1)N(C)C(=O)OCc1ccccc1 (stereo not drawn) [Compound 26] sits at 4 or higher.
Outgoing: FALSE

Incoming: Assess whether reported pIC50 for CCN(C(=O)OC)C(C)C(=O)c1ccccc1 (stereo not drawn) [Compound 1] sits at 4 or higher.
Outgoing: FALSE

Incoming: Assess whether reported pIC50 for Cc1ccc(C(=O)C(C)N(C)C(=O)Oc2ccccc2)cc1C (stereo not drawn) [Compound 21] sits at 4 or higher.
Outgoing: TRUE

This collection of values is drawn from paper PMC6479915.
